From: patent US9005627B2

measurement.description: Solubility characteristics of COPs
setup.conditions: water
No end group written: not given here.
solubility listing for selected sequences.

{"residue.codes": "TSGAYNIIDGCWRGKADWAENRKALADCAQGFGKGTVGGKDGDIYTVTSELDDDVANPK (cysteines drawn unpaired) [AllerR1]", "solubility": "2000 µg/mL"}
{"residue.codes": "TIDGRGAKVEIINAGFTLNGVKNVIIHNINMHDVKVNPGGLIK [AllerR3]", "solubility": "2000 µg/mL"}

Alright, here's another sequence for you.
// lookup solubility for DVANPKEGTLRFGAAQNRPLWIIFERDMVIRLDKEMVVNSDKTIDGRGAKVE [AllerR2]
2000 µg/mL
